- assay_target: NF-κB (human recombinant; p65 subunit used in docking) (Homo sapiens)
- Construct: gene RELA; human recombinant NF-κB protein, Sino Biological cat; No. 12054-H09E
- experiment_notes: microscale thermophoresis with labeled recombinant protein
- Type: binding
- stated_conditions: read-out: Kd
value_kind: pKd
// pKd here means minus log10 of the molar concentration (mol/L)

Ask: Fill in the blank: the reported pKd of `COc1cccc2c(-c3ccc4c(c3O)[C@@H](C)N[C@H](C)C4)c(C)c(-c3c(C)c(-c4ccc5c(c4O)[C@@H](C)N[C@H](C)C5)c4cccc(OC)c4c3O)c(O)c12` is ____.
Result: 5.78
